- tested system: C5aR^WT incubated with PMX53 (effector site blocked) (human) (UniProt P21730)
- Sequence (P21730 whole entry): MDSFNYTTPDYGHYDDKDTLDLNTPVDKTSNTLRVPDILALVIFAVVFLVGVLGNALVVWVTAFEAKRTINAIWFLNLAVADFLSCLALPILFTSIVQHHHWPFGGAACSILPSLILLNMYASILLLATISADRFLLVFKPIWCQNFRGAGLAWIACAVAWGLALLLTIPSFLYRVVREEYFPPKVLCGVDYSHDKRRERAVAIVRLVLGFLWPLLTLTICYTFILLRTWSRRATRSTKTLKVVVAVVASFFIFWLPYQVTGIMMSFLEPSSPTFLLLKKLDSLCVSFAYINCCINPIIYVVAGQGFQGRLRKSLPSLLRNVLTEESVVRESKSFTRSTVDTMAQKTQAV
- test summary: AFM dynamic force spectroscopy (FV- and FD-based AFM, Friddle-Noy-de Yoreo fit); C5a tethered by its N-terminal His6-tag to a tris-NTA-Ni2+ PEG27 tip; C5aR (wild type, mutant, or wild type incubated with PMX53) in DOPC/CHS liposomes adsorbed on mica; imaging buffer 20 mM HEPES, 300 mM NaCl; ≈24 °C; Kd calculated from ΔGbu = kbT × ln(0.018 Kd)
assay readout: pKd
Keep in mind that pKd stands for -log10 of concentration in molar terms.

INPUT: Entry complement C5a anaphylatoxin with N-terminal His6-tag (ligand, human, UniProt P01031 678-751, looked up, C5a anaphylatoxin, the 74-amino acid cut product of complement C5; numbers count on: C5a itself (R74 is its C-terminal residue); Tethered by its His6-tag to a tris-NTA-Ni2+ PEG27 AFM tip; C5a from R&D Systems is named only for the GTPgammaS assay; also called C5a ligand; endogenous C5a ligand; not shown: His6, N-terminal, kept) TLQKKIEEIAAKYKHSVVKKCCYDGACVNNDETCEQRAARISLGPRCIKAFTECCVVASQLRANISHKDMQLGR has what pKd?
OUTPUT: 0.10
